B1: PhoQ; a variant is named by its letters at X, in order, P23837 (parent)
chain: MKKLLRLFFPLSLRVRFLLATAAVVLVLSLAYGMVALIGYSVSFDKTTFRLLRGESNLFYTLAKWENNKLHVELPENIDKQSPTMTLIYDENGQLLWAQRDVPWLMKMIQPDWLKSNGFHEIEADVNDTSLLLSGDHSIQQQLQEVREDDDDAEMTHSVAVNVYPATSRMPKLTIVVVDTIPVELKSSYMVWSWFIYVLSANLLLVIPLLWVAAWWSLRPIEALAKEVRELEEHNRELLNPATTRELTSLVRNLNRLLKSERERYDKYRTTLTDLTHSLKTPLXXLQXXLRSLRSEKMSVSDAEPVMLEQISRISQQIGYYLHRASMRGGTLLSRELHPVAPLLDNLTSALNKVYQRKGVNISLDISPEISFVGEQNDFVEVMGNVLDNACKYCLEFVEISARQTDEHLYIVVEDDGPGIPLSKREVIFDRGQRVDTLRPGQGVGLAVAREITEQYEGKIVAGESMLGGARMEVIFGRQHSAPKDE

variants of: B1; experiment: enrichment ratio after two sorts for PhoP signalling (ratio (wild type AVST 3.29)); higher = more functional; details: with PhoP (E. coli)
Whole data set: some 140,000 sequences, median “enrichment ratio after two sorts for PhoP signalling” near 0, cut for the highest 2% near 11. The list comes from a sample in which the highest values are over-represented; it also holds close analogues and randomly drawn sequences.
MEASUREMENT_TYPE: enrichment ratio

Reference set, count: 6
RNQP ... ≤ 0.25
GVSY ... ≤ 0.25
GGCE ... ≤ 0.25
KSLV ... ≤ 0.25
RGCE ... ≤ 0.25
SCDT ... ≤ 0.25

For every listed record, write down its enrichment ratio.
1. GEEY
2. PFML
3. AGWM
4. EERG
5. RQQH
6. NGCS
7. WMLF
8. QESY

≤ 0.25
≤ 0.25
≤ 0.25
≤ 0.25
≤ 0.25
≤ 0.25
≤ 0.25
≤ 0.25
